- System: HL-60(TB) leukemia
- TEST METHOD NOTES: NCI tumour cell line growth inhibition, 48 h

{"columns": ["COMPOUND", "GI50"],
 "data": [
  ["CC/C=C\\C/C=C\\C[C@H]1C/C=C2/C(=O)C=C[C@@H]2C/C=C\\CCC(=O)O1", "1220 nM"],
  ["COc1ccc2c(c1OC)CO[C@@H]2[C@H]1c2c(c(Br)c3c(c2OC)OCO3)CCN1C", "1890 nM"],
  ["ClC1=C(Cl)C(Cl)=C(Cl)C1=Cc1ccccc1", "595 nM"],
  ["Cn1c(-c2c(N)n(Cc3ccc(C(F)(F)F)cc3)c3nc(C#N)c(C#N)nc23)nc2ccccc21", "16700 nM"],
  ["CCn1cc(C(=O)N/N=C/c2ccc(Br)cc2)c(=O)c2cc(F)c(N3CCNC(C)C3)c(F)c21 (centres undefined)", "1880 nM"],
  ["CCN(CC)c1ccc2c(cc1=O)[C@@H](NC(C)=O)CCc1cc(OC)c(OC)c(OC)c1-2", "63.3 nM"],
  ["CC(=O)OC1Oc2ccc(C)cc2-c2oc(=O)c(-c3cc4ccccc4oc3=O)cc21 (centres undefined)", "822 nM"],
  ["CC(C)=NNc1ncnc2c1ncn2C1OC(CO)C(O)C1O (centres undefined)", "402 nM"],
  ["N=C1S/C(=C/c2ccc(-c3ccc4c(c3)C(=O)NC4=O)o2)C(=O)N1c1ccc(Br)cc1", "> 100000 nM"]
]}
